Recorded Ke values for a group of compounds are listed next.
# TARGET ENTITY: Cannabinoid CB1 receptor/orexin receptor 1 complex (Homo sapiens) (UniProt P21554+O43613)
# CONDITION PARAMETERS: RD-HGA16
# Description: Antagonist activity at CB1-OX1 heterodimer (unknown origin) expressed in RD-HGA16 cells assessed as inhibition of CP55940-induced calcium mobilization by fluorometric imaging plate reader analysis
PARAMETER: Ke

INSERT INTO results (compound, target_entity, observed_result) VALUES
  ('COc1cc2c(cc1OC)C(Cc1ccc(OC(=O)CCCCCCN(C)CCCCCCCNC(=O)c3nn(-c4ccc(Cl)cc4Cl)c(-c4ccc(Cl)cc4)c3C)c(OC)c1)N(CC(=O)NCc1ccccc1)CC2 (stereo not drawn)', 'Cannabinoid CB1 receptor/orexin receptor 1 complex (Homo sapiens) (UniProt P21554+O43613)', '> 10 µM'),
  ('COc1ccc(CC2c3cc(OC)c(OC)cc3CCN2C(C(=O)NCCCCCCCN(C)CCCCCCCNC(=O)c2nn(-c3ccc(Cl)cc3Cl)c(-c3ccc(Cl)cc3)c2C)c2ccccc2)cc1OC (stereo not drawn)', 'Cannabinoid CB1 receptor/orexin receptor 1 complex (Homo sapiens) (UniProt P21554+O43613)', '> 10 µM'),
  ('COc1ccc(CC2c3cc(OCCCCCCC(=O)NCCOCCOCCOCCNC(=O)c4nn(-c5ccc(Cl)cc5Cl)c(-c5ccc(Cl)cc5)c4C)c(OC)cc3CCN2CC(=O)NCc2ccccc2)cc1OC (stereo not drawn)', 'Cannabinoid CB1 receptor/orexin receptor 1 complex (Homo sapiens) (UniProt P21554+O43613)', '> 10 µM');
